Where do the numbers come from? From PubChem BioAssay (NCI).

tested on: OVCAR-4 ovarian; assay: NCI-60 one-dose screen, 48 h (100 = growth as untreated, 0 = no growth, -100 = all killed); details: 10 µM unless noted
Compounds without any hit were thinned out: in the full panel of roughly 83,000, 20% have a hit.
Reported growth is given for each of the following compounds.
Give just the numeric value; % need not be written.

See these solved cases before continuing.
>>> reading("COc1ccc(Nc2nn3c(SCC(=O)c4ccc(C)cc4)nnc3s2)cc1")
108
>>> reading("CCOC(=O)c1cnn(CC(O)CC)c1NC(=O)NCc1ccccc1C(F)(F)F (centres undefined)")
106
>>> reading("N#Cc1c(N)nnn1Cc1cc(=O)oc2ccc(O)cc12")
110

Q. Return reported growth; argument: CN1CCN(CCNC(=O)c2cccc(CN3c4cccc5c4C(=Cc4cccnc43)N(C)C5=O)c2)CC1
A. 37.4

Q. Please look up its growth: CCNC(=O)Nc1ncccc1OCc1ccc(F)cc1
A. 96.4

Q. Query: growth; subject: CCCCCC#CC1OC23CCCCC2C(C#N)(C(=N)O3)C1(C#N)C#N (centres undefined)
A. 108

Q. Which growth value is on record for CC1(C)C(N)=Nc2cc(OCCCN3Cc4ccc(OCCc5cn(CC(=O)N6CCC(CCN7CCCC7)CC6)nn5)cc4C3)c(OCC3CC3)cc21 ?
A. 94.6

Q. Fill blank: measured growth of the compound COc1ccc2c(c1)CC[C@@H]1[C@@H]2CC[C@]2(C)C3C(=CCC4C(=O)N(c5ccccc5)C(=O)C43)C[C@@H]12 (some centres undefined) is ____.
A. 78.8

Q. Requested read-out: growth. Entry: O=C(Cn1cc(CN2CCN(c3ccnc4cc(Cl)ccc34)CC2)nn1)Nc1cccc([N+](=O)[O-])c1
A. 92.4

* * *

test system: HCC-2998 colon; test: NCI-60 one-dose screen, 48 h (100 = growth as untreated, 0 = no growth, -100 = all killed); details: 10 µM unless noted
This is part of a sample that, as a whole, favours compounds with a hit. Of some 83,000 tested, about 20% had one in any assay.
propertyLabel: growth (%)
Just the number please, in %, no unit attached.

>>> reading("C[C@@H]1CC[C@@H]2[C@@H]1[C@H](OC(=O)/C=C/c1ccccc1)[C@]1(c3ccccc3)C[C@@H](NC(=O)CO)[C@@]2(C)O1")
104
>>> reading("Cc1ccc(-c2nc([P+](c3ccccc3)(c3ccccc3)c3ccccc3)c(Nc3ccccc3)o2)cc1")
-51.5
>>> reading("CCOC(=O)c1c(-c2ccc(OC)cc2)c(C#N)c2c(C#N)c(N)nn2c1N")
62.9

Q. Under HCC-2998 colon: growth value of O=C1C(Nc2ccc(Cl)cc2)=C(I)C(=O)c2ncccc21 ?
A. 79.5

Q. Return growth measured with HCC-2998 colon given this compound: CCC(=C(c1ccc(OCCCN(C)C)cc1)c1ccc(OCCCN(C)C)cc1)c1ccc(Cl)cc1
A. -80.8

Q. Notebook entry, HCC-2998 colon assay: growth of CCCCCCNC(=O)Oc1ccc(/C(=C(/CC)Cc2ccccc2)c2ccc(OCCCN(C)C)cc2)cc1 = ?
A. 24.1

Q. Please state recorded growth (tested on HCC-2998 colon) of CC(=O)N1N=C(c2ccc(F)cc2)CC1c1sc(N(C)Cc2ccccc2)nc1Cl (configuration not stated)
A. 91.2

Q. What is its growth for HCC-2998 colon? Entry: CC1=CC=C(NC(=O)/C=C/c2ccccc2)CC1Nc1nccc(-c2cccnc2)n1 (configuration not stated)
A. 70.5

Q. Under HCC-2998 colon: growth value of Cc1ccc(-c2nc(C#N)c(S(=O)(=O)N(C)C)o2)cc1 ?
A. 93.1

* * *

test system: EKVX NSCLC; experiment: NCI-60 one-dose screen, 48 h; conditions: 10 µM unless noted
The panel holds about 83,000 compounds, 20% with a hit somewhere; the sample as a whole holds those more often. Active and inactive are the calls of the source. How the source made its calls: active means growth percent below 10; inactive means the rest.
Select the matching outcome among active, inactive

The examples below pair each entry with its known result.
>>> label("CC/C(=C(/c1ccc(Cl)cc1)c1ccc(OCCN2CCOCC2)cc1)c1ccccc1")
"inactive"
>>> label("C=CCNC(=O)Cc1c(-c2ccc(OC)cc2)oc2c(OC)c3c(c(OC)c12)OCO3")
"inactive"
>>> label("Cc1ccc(S(=O)(=O)OC[C@@]2(C)CC[C@]3(C)CC[C@]4(C)C(=CC[C@@H]5[C@@]6(C)CCCNC(C)(C)[C@@H]6CC[C@]54C)[C@@H]3C2)cc1")
"active"

Q. Could you please tell me the result logged for COc1ccc(CN2CCc3c(Cl)nc(N)nc3C2=O)c(OC)c1 in this assay?
A. active

Q. Entry Nc1nc(Nc2ccc(F)cc2)nn1C(=O)c1cc(Cl)ccc1Cl : call = ?
A. inactive

Q. Called result for O=C(/C=C/c1ccc([N+](=O)[O-])cc1)c1ccccc1
A. inactive

Q. Check the results log: what was the call for COc1ccccc1/C=C1\COc2ccc(O)c(O)c2C1=O ?
A. inactive

Q. Test call for this molecule, please: COc1ccc(-c2cc(-c3cccc(Cl)c3)c(C#N)c(=O)[nH]2)c(OC)c1
A. inactive

Q. What classification did CN(C)c1ccc2nc3ccc(=O)cc-3sc2c1 end up with in this test?
A. inactive

Q. Which result was noted for this molecule in the test: COc1ccc(C(c2cc(OC)c(OC)c(OC)c2)n2ccnc2)cc1O (stereo not drawn)
A. inactive

Q. Entry C/C=C(\C)C(=O)N[C@H]1CC[C@]2(C)C3CC[C@@]4(C)C(CC[C@@H]4C(C)N(C)C)C3CCC2[C@H]1OC(C)=O (stereo partly drawn) : call = ?
A. active

Q. How did this test come out for CCN(CC)CC(=O)Nc1ccc2ncnc(Nc3ccc(Oc4cccc(F)c4)c(Cl)c3)c2c1 ?
A. inactive

Q. Write down the call the test reported for this molecule. Item: CCCCCO/N=C\c1c2c(O)c3c(O)c(C)c4c(c3c1O)C(=O)C(C)(O/C=C\C(OC)C(C)C(OC(C)=O)C(C)C(O)C(C)C(O)C(C)/C=C\C=C(\C)C(=O)N2)O4 (stereo not drawn)
A. inactive

Q. Could you kindly confirm the outcome this assay logged for CC[C@]12CN3CCc4c([nH]c5ccccc45)[C@@](C(=O)OC)(c4cc5c(cc4OC)N(C)[C@H]4[C@@](O)(C(=O)OC)[C@H](OC(C)=O)[C@]6(CC)C=CCN7CC[C@]54[C@@H]76)CC(C3)[C@H]1O2 (stereo partly drawn) ?
A. inactive

Q. Record request — test call for CCOC(=O)N(O)c1ccc(/C=C/c2ccccc2)cc1
A. inactive

Q. # fetch the recorded call for O=S(=O)(O)c1ccc(N=Nc2ccc(N=Nc3cccc4ccccc34)c(S(=O)(=O)O)c2)cc1 here
A. inactive

Q. Any idea what this test logged for O=C(/C=C/c1ccc(F)cc1)Nc1ncc(Cc2ccc(F)cc2)s1 ?
A. inactive

Q. Called result for CCN(CC)CCCN1C(=O)c2c(c(C)c3c(oc4cc(OC)ccc43)c2C)C1=O
A. inactive

* * *

tested on: PC-3 prostate; assay: NCI-60 one-dose screen, 48 h; conditions: 10 µM unless noted
This is part of a sample that, as a whole, favours compounds with a hit. Of some 83,000 tested, about 20% had one in any assay. Calls of active or inactive are those of the source. How the source made its calls: active means growth percent below 10; inactive means the rest.
Output constraint: value belongs to T = active, F = inactive

Q. Please state the recorded outcome for this compound: CCCCSc1ccc2nc(-c3ccc(OCCCN=C(N)N)cc3)cn2c1
A. F

Q. // outcome(item) with item = O=C1C(Nc2ccc(Cl)cc2)=C(I)C(=O)c2ncccc21
A. F

Q. Could you kindly confirm the outcome this assay logged for CN(C)CCCn1c2c(c3ccc(N4CCNCC4)cc3c1=O)C(=O)c1ccccc1-2 ?
A. T

Q. Hi team, can someone confirm the assay call for C=C1CC[C@@H]2[C@](C)(COC(C)=O)[C@H](OC(C)=O)CC[C@@]2(C)[C@@H]1CC(Nc1ccc(S(=O)(=O)Nc2nccs2)cc1)C1=CCOC1=O (stereo not given in full) ?
A. F

Q. Test call, this compound: COc1cc(CO)cc2cc3ccccc3nc12
A. F

* * *

Quick list: growth per entry.
test system: HCC-2998 colon; assay: NCI-60 one-dose screen, 48 h (100 = growth as untreated, 0 = no growth, -100 = all killed); conditions: 10 µM unless noted
The panel holds about 83,000 compounds, 20% with a hit somewhere; the sample as a whole holds those more often.
Value expressed in %; do not type the unit.

Q. I'm curious: which growth was measured for CCCn1nc(C(=O)N2CCCCC2)c2c1CCC(N1CCC(c3ccncc3)CC1)C2 (stereo not given) tested on HCC-2998 colon?
A. 109

Q. Query for HCC-2998 colon: what growth does the record show for COc1ccc(-c2ccc(-c3ccc(C(=N)N)cn3)o2)cc1Cl ?
A. 67.5

Q. Which measured growth belongs to COc1ccc(/C=N/NC(=O)CN2CCN(c3cc4c(cc3F)c(=O)c(C(=O)O)cn4C3CC3)CC2)cc1O , tested on HCC-2998 colon?
A. 99.2

Q. Param readout= growth; system= HCC-2998 colon; entry= O=C1C=C(Nc2ccccc2)c2ncccc2C1=O ; returns value.
A. -89.1

Q. What reported growth corresponds to Cn1cc2c(=O)nc3c(-c4nc5ccccc5[nH]4)n[nH]n3c2n1 on HCC-2998 colon?
A. 84.8

Q. # query: growth | item C[N+]1=C(/C=C\C=C\c2ccccc2)C(C)(C)c2ccccc21 | system: HCC-2998 colon
A. 47.9

Q. Which measured growth belongs to Cc1nc2cccc(NCCCCC(=O)NO)c2c(=O)n1-c1ccccc1 , tested on HCC-2998 colon?
A. 82

Q. // fetch HCC-2998 colon growth for O=C1C(N2CCOCC2)=C(I)C(=O)c2ncccc21
A. 86.8

Q. Checklist item: growth tested on HCC-2998 colon, entry COc1cc(-c2nn(-c3cccc(NC(=O)CCN4CCN(C)CC4)c3)cc2-c2ccncc2)ccc1Cl , value?
A. 54.7

Q. # value lookup — system HCC-2998 colon, readout growth, item CCN(CC)/C([O-])=c1\cccc\c1=C1\N=C(c2ccccc2)N=C1[n+]1ccc(-c2ccccc2)cc1
A. 93.3
